Hello, the source for this data is paper PMC11116813, in case you need it.

# Target entity: full-length human HP1α WT (hHP1α), recombinant (human, UniProt P45973 1-191)
# Sequence (P45973 whole entry): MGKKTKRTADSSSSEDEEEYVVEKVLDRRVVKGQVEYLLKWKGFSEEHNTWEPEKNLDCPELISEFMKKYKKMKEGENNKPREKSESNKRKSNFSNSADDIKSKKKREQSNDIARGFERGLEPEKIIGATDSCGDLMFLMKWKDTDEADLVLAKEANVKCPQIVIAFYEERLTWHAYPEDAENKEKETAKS
# Procedure summary: ITC
Readout type: Ka
Your reply should be a number followed by the unit it is expressed in.

Query: Dear colleague, I am looking for the recorded Ka of the following binder: human Sgo1 fragment (405-494), Tyr-added, GST removed (domain or fragment) YAKRALKYTDEKETEGSKPTKTPTTTPPETQQSPHLSLKDITNVSLYPVVKIRRLSLSPKKNKASPAVALPKRRCTASVNYKEPTLASKLR
Reply: 242000 M⁻¹

Query: Dear colleague, I am looking for the recorded Ka of the following binder: human INCENP (121-270) WT -6His, GST removed (domain or fragment) LRRVTRAAAAAAAATMALAAPSSPTPESPTMLTKKPEDNHTQCQLVPVVEIGISERQNAEQHVTQLMSTEPLPRTLSPTPASATAPTSQGIPTSDEESTPKKSKARILESITVSSLMATPQDPKGQGVGTGRSASKLRIAQVSPGPRDSP
Reply: 2.35e+07 M⁻¹

Query: Dear colleague, I am looking for the recorded Ka of the following binder: human INCENP (160-210) -6His, GST removed (domain or fragment) HTQCQLVPVVEIGISERQNAEQHVTQLMSTEPLPRTLSPTPASATAPTSQG
Reply: 3.9e+07 M⁻¹

Query: Dear colleague, I am looking for the recorded Ka of the following binder: human INCENP (121-210) -6His, GST removed (Fig. 2D) (domain or fragment) LRRVTRAAAAAAAATMALAAPSSPTPESPTMLTKKPEDNHTQCQLVPVVEIGISERQNAEQHVTQLMSTEPLPRTLSPTPASATAPTSQG
Reply: 7.25e+07 M⁻¹

Query: Dear colleague, I am looking for the recorded Ka of the following binder: human INCENP fragment (121-210) WT used in Fig. 6A (domain or fragment) YLRRVTRAAAAAAAATMALAAPSSPTPESPTMLTKKPEDNHTQCQLVPVVEIGISERQNAEQHVTQLMSTEPLPRTLSPTPASATAPTSQG
Reply: 1.82e+07 M⁻¹
